Every entry's value here was drawn from ChEMBL document CHEMBL1144528.

- STUDY_TARGET: Sodium-dependent serotonin transporter (Macaca mulatta)
- Sequence (Q9MYX0 whole entry): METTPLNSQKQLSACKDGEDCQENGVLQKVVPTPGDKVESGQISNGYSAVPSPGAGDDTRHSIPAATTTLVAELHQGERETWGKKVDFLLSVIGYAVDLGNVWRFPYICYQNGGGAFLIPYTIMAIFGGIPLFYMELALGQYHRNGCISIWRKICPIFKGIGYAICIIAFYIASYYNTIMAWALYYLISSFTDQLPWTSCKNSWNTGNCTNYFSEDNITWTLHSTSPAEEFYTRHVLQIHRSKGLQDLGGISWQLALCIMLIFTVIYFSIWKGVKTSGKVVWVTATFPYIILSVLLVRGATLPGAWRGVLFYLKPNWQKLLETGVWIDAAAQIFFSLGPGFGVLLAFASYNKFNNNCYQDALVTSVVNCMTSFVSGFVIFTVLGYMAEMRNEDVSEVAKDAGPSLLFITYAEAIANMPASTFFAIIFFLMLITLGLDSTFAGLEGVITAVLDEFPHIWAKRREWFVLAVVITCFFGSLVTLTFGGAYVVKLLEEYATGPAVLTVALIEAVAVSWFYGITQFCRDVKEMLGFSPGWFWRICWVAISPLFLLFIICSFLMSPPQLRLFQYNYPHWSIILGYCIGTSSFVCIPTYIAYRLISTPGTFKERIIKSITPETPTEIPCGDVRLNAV
Below, each of the compounds is paired with its reported pIC50 value.
On this scale, pIC50 is minus log10 of a concentration expressed in M (mol/L).

>  <COMPOUND>
COC(=O)C1=C(c2ccc(Cl)c(Cl)c2)CC2CC[C@@H]1O2

>  <METRIC>
pIC50

>  <NUMBER>
4.33

$$$$

Missing value: pIC50, Sodium-dependent serotonin transporter (Macaca mulatta), entry `COC(=O)[C@@H]1[C@H]2[C@H](O)CC(C[C@H]1c1ccc(Cl)c(Cl)c1)N2C` . Fill in?
5.91

Missing value: pIC50, Sodium-dependent serotonin transporter (Macaca mulatta), entry COC(=O)[C@@H]1C2CCC(C[C@H]1c1ccc(Cl)cc1)S2 (some centres undefined) . Fill in?
6.00

Missing value: pIC50, Sodium-dependent serotonin transporter (Macaca mulatta), entry `COC(=O)C1=C(c2ccc(Cl)c(Cl)c2)CC2CC[C@H]1S2` . Fill in?
5.59

Missing value: pIC50, Sodium-dependent serotonin transporter (Macaca mulatta), entry COC(=O)C1=C(c2ccc(Cl)c(Cl)c2)CC2CCC1O2 (centres undefined) . Fill in?
5.22

Missing value: pIC50, Sodium-dependent serotonin transporter (Macaca mulatta), entry COC(=O)[C@@H]1C2CCC(C[C@@H]1c1ccc(F)c(F)c1)S2 (some centres undefined) . Fill in?
6.63

Missing value: pIC50, Sodium-dependent serotonin transporter (Macaca mulatta), entry `COC(=O)[C@@H]1[C@@H]2[C@H](O)CC(C[C@@H]1c1ccc(Cl)c(Cl)c1)N2C` . Fill in?
6.86

Missing value: pIC50, Sodium-dependent serotonin transporter (Macaca mulatta), entry COC(=O)[C@@H]1C2CCC(C[C@@H]1c1ccc(F)cc1)S2 (some centres undefined) . Fill in?
6.31
